meta.source: the kinase profiling compilation of Christmann-Franck et al. (2016)

- test.system: CLK2 (human) (UniProt P49760)
- Sequence (P49760 whole entry, looked up): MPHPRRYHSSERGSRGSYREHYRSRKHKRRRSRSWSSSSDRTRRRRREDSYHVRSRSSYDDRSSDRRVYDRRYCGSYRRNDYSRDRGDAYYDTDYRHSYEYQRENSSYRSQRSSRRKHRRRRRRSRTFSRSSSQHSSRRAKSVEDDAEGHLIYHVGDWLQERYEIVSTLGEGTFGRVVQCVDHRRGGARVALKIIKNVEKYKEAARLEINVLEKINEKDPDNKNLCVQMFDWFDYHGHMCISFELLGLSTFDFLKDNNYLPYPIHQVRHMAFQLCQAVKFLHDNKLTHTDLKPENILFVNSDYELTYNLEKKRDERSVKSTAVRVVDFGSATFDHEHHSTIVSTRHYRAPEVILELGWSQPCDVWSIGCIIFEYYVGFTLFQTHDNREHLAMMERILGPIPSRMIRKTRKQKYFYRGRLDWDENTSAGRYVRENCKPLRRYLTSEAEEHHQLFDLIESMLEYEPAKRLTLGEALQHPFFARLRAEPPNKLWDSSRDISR
- experiment.description: radiometric filter-binding kinase assay
- measurement.parameters: compound 1.0 µM
measured.attribute: residual activity (%)

# compound, units.text, residual activity
measured = [
    ("COc1ccc(N(C(=O)Nc2c(C)cccc2C)c2cc(Nc3ccc(N4CCN(C)CC4)cc3)ncn2)c(OC)c1", "%", 108),
    ("Nc1cccc2c1CN(C1CCC(=O)NC1=O)C2=O (centres undefined)", "%", 104),
    ("COc1cc(O)c2c(c1)/C=C/C[C@H](O)[C@H](O)C(=O)/C=C\\C[C@H](C)OC2=O", "%", 90),
    ("NCC(=O)Nc1ccc(-n2nc(C(F)(F)F)cc2-c2ccc3c(ccc4ccccc43)c2)cc1", "%", 93),
    ("CC1=C(CO)C(=O)O[C@@H]([C@@H](C)[C@H]2CC[C@H]3[C@@H]4C[C@H]5O[C@]56[C@@H](O)C=CC(=O)[C@]6(C)C4CC[C@]23C)C1 (some centres undefined)", "%", 102),
    ("FC(F)(F)c1ccc(-c2ccc(Oc3cncc4sc(-c5nn[nH]n5)cc34)cc2)cc1", "%", 73),
]

[I] NC1(c2ccc(-c3nc4ccn5c(=O)[nH]nc5c4cc3-c3ccccc3)cc2)CCC1
[II] c1ccc2c(-c3cnn4cc(-c5ccc(N6CCNCC6)cc5)cnc34)ccnc2c1
[III] O=C(Nc1nc2cc(C(F)(F)F)cc(NC3CC3)n2n1)c1cccnc1
Sort (3 compounds) by residual activity: min first. Form entry: labels listed in requested order.
II, III, I
(II: 21%, III: 40%, I: 81%)

---

- test.system: PAK7 (human)
- experiment.description: radiometric filter-binding kinase assay
- measurement.parameters: compound 1.0 µM
measured.attribute: residual activity (%)

# annotated cases, reported residual activity shown
# structure, test.result
rows = [
    ("NC(=O)c1cc2c(-c3cccc(-c4ccccc4)c3)cnc(N)c2s1", 37),
    ("Cc1cccc(-c2nn(C(=S)Nc3ccccc3)cc2-c2ccnc3ccccc23)n1", 102),
    ("NC(=O)Nc1ccc2c(c1)/C(=C/c1cc(-c3cccnc3)c[nH]1)C(=O)N2", 43),
    ("NC(=O)c1cc(-c2ccnc(NC3CCCCC3)c2)nc(N2CCNCC2)c1", 90),
    ("O=C(O)c1ccc(-c2c[nH]c3ncc(-c4ccccc4)cc23)cc1C1CCCC1", 88),
    ("Cc1ccc(-c2ccc3c(ccc4sc5c(c43)NC[C@@H](C)NC5=O)n2)cn1", 101),
    ("CCCCCc1ccc(/C=C/[C@H](O)[C@@H](CO)NC)cc1", 100),
    ("Cc1cc(SCc2sc(-c3ccc(C(F)(F)F)cc3)nc2C)ccc1OCC(=O)O", 97),
]

[a] COc1cc(O)c2c(c1)/C=C/C[C@H](O)[C@H](O)C(=O)/C=C\C[C@H](C)OC2=O
[b] COc1ccc(-n2ncc3cnc(Nc4cc(OC)c(OC)c(OCCCN5CCN(C)CC5)c4)nc32)cc1
Could you please tell me which of these two has the higher residual activity: a or b ? Indicate your choice by writing its label.
a
(a: 103%, b: 18%)

---

- test.system: MAPK3 (human)
- experiment.description: radiometric filter-binding kinase assay
- measurement.parameters: compound 10.0 µM
measured.attribute: residual activity (%)

# molecule, units.text, residual activity
rows = [
    ("CC(C)C[C@H](NC(=O)CNC(=O)c1cc(Cl)ccc1Cl)B1OC(=O)CC(CC(=O)O)(C(=O)O)O1 (stereo partly specified)", "%", 106),
    ("O=S(=O)(c1ccc(F)c2nonc12)N1CCN(c2ncc(C(F)(F)F)cc2Cl)CC1", "%", 86),
    ("Nc1cccc2c1CN(C1CCC(=O)NC1=O)C2=O (stereo unspecified)", "%", 94),
    ("Oc1ccc(/C=C/c2cc(O)cc(O)c2)cc1", "%", 88),
    ("O=C(NOC[C@H](O)CO)c1ccc(F)c(F)c1Nc1ccc(I)cc1Cl", "%", 106),
    ("N#Cc1c(C2CCNCC2)cc(-c2c(O)cccc2OCC2CC2)nc1N", "%", 80),
    ("C[C@H]1CCCC(=O)CCC/C=C/c2cc(O)cc(O)c2C(=O)O1", "%", 107),
    ("NS(=O)(=O)OC[C@@H]1C[C@@H](n2ccc3c(N[C@H]4CCc5ccccc54)ncnc32)C[C@@H]1O", "%", 73),
    ("COC(=O)/C=C/C(=O)OC", "%", 95),
    ("O=C1NC(=S)N[C@@H]1Cc1c[nH]c2ccccc12", "%", 82),
    ("NC1(c2ccc(-c3nc4ccn5c(=O)[nH]nc5c4cc3-c3ccccc3)cc2)CCC1", "%", 93),
]
